The values you see were collected from patent US20170267764A1.

TARGET DESC: T1, human MICA allele MICA*007 (human, UniProt Q29983 24-297)
T1 construct: Expressed on transfected C1R cells; also called MICA*07; C1R-MICA*007
T1 chain: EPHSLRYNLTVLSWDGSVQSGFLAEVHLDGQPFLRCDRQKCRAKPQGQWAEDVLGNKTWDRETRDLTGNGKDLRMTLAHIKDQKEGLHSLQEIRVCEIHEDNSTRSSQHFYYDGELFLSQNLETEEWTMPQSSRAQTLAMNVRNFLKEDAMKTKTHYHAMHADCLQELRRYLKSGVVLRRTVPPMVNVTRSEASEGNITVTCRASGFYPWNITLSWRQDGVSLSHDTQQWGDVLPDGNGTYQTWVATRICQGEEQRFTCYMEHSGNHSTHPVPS
TEST: flow cytometry, C1R-MICA*007 transfectant cells
Here, each record is paired with measured EC50 data.

| BINDER | EC50, µg/mL |
| --- | --- |
| mAb6 (antibody, V domains shown, Produced in CHO cells as human IgG1 with huCk constant domain) VH: QVQLQESGPGLVKPSETLSLTCTVSGYSITSDYAWNWIRQPPGKGLEWMGFVSYSGTTKYNPSLKSRVTISRDTSKNQFSLKLSSVTAADTAVYYCARGYGFDYWGQGTTVTVSS VL: EIVLTQSPATLSLSPGERATLSCSATSSISSIYFHWYQQKPGQAPRLLIYRTSNLASGIPARFSGSGSGTDYTLTISSLEPEDVAVYYCQQGTTIPFTFGQGTKLEIK | 0.0718 |
| mAb1 (antibody, V domains shown, Produced in CHO cells as human IgG1 with huCk constant domain; also called anti-MICA mAb1; anti-MICA antibody mAb1) VH: QVQLQESGPGLVKPSETLSLTCTVSGYSITSDYAWNWIRQPPGKGLEWIGFVSYSGTTKYNPSLKSRVTISRDTSKNQFSLKLSSVTAADTAVYYCARGYGFDYWGQGTTVTVSS VL: EIVLTQSPATLSLSPGERATLSCSATSSISSIYFHWYQQKPGQAPRLLIYRTSNLASGIPARFSGSGSGTDYTLTISSLEPEDFAVYYCQQGTTIPFTFGQGTKLEIK | 0.033 |
| mAb5 (antibody, V domains shown, Produced in CHO cells as human IgG1 with huCk constant domain) VH: QVQLQESGPGLVKPSETLSLTCTVSGYSITSDYAWNWIRQPPGKGLEWMGFVSYSGTTKYNPSLKSRVTISRDTSKNQFSLKLSSVTAADTAVYYCARGYGFDYWGQGTTVTVSS VL: EIVLTQSPATLSLSPGERATLSCSATSSISSIYFHWYQQKPGQAPRLLIYRTSNLASGIPARFSGSGSGTSYTLTISSLEPEDFAVYYCQQGTTIPFTFGQGTKLEIK | 0.0493 |
| mAb2 (antibody, V domains shown, Produced in CHO cells as human IgG1 with huCk constant domain) VH: QVQLQESGPGLVKPSETLSLTCTVSGYSITSDYAWNWIRQPPGKGLEWIGFVSYSGTTKYNPSLKSRVTISRDTSKNQFSLKLSSVTAADTAVYYCARGYGFDYWGQGTTVTVSS VL: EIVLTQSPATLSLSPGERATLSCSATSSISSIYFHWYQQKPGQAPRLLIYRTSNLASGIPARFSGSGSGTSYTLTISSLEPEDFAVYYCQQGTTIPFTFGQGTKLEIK | 0.0502 |
